Tested on: S typhimurium CT10
Test: MIC, antibacterial activity (microtitre using nutrient broth)
Type: cell-based
Conditions: * racemic, not corrected for presence of inactive enantiomer

molecule | target-of-assay | scale-unit | reported-relation | MIC
C/C(=C\CN)SC1=C(C(=O)O)N2C(=O)[C@@H]([C@H](C)O)[C@H]2C1 | S typhimurium CT10 | µg/mL | = | 0.2
C[C@@H](O)[C@H]1C(=O)N2C(C(=O)O)=C(S/C=C\CN)C[C@H]12 (racemic) | S typhimurium CT10 | µg/mL | = | 0.6
C/C(=C/CN)SC1=C(C(=O)O)N2C(=O)[C@H]([C@@H](C)O)[C@H]2C1 | S typhimurium CT10 | µg/mL | = | 0.2
C/C(=C\CN)SC1=C(C(=O)O)N2C(=O)[C@H]([C@@H](C)O)[C@H]2C1 (racemic) | S typhimurium CT10 | µg/mL | = | 0.4
C[C@H](O)[C@@H]1C(=O)N2C(C(=O)O)=C(S/C=C/CN)C[C@H]12 | S typhimurium CT10 | µg/mL | = | 0.4
C[C@@H](O)[C@H]1C(=O)N2C(C(=O)O)=C(S/C=C/CN)C[C@H]12 | S typhimurium CT10 | µg/mL | = | 0.2
C/C(=C/CN)SC1=C(C(=O)O)N2C(=O)[C@@H]([C@H](C)O)[C@H]2C1 | S typhimurium CT10 | µg/mL | < | 0.1
